So I've got a bunch of variants here, and I need their self-cleavage values.
B1: Osa-1-4 twister ribozyme (parent)
chain: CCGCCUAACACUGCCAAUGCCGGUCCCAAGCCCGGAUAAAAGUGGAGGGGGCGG

# Variants of: B1
# assay: self-cleavage, relative activity (ratio to wild type); higher = more cleavage; co-transcriptional
Numbers only.

Worked examples, 5 variants total:
A38U A7C | 0.05
C15U G35C | 0.07
G42U U24A | 0.03
G30A U12A | 0.03
C27A G51A | 0.1

For the 3 variants below, give their self-cleavage values.
1. C31A G44A
2. G23A G45A
3. C15G G45A

0.04
0.05
0.07

For the 5 variants below, give their self-cleavage values.
1. A7G G45A
2. A8U G19A
3. A10U A39C
4. C52U G30C
5. C25A G35C

0.08
0.08
0.04
0.04
0.05

For the 5 variants below, give their self-cleavage values.
1. A36G A39C
2. A10C C25G
3. A16G C33A
4. G34A U43C
5. A28C C20G

1.05
0.01
0.26
0.19
0.31

For the 8 variants below, give their self-cleavage values.
1. G45U G50A
2. A7U C52G
3. A29C U43C
4. A40U U24G
5. C25G G50A
6. A29C G19C
7. G23C G44C
8. C31G C9U

0.12
0.12
0.03
0.03
0.12
0.02
0.04
0.06
